Test system: SN12C
protocolSummary: NCI screen antiproliferative activity, renal SN12C
Consider the following compounds and their measured GI50 readings.
Answer format: numeric, nM implied, no suffix.

Check SN12C data and give GI50 for COc1cnc2c(c1)C(=O)c1c-2n(CCCN(C)C)c(=O)c2cc(OC)c(OC)cc12.Cl [Compound 55, Hydrochloride] .
3600

---

Consider the following compounds and their measured GI50 readings.
Tested on: OVCAR-3
protocolSummary: NCI screen antiproliferative activity, ovarian OVCAR-3
Answer format: numeric, nM implied, no suffix.

Check OVCAR-3 data and give GI50 for `COc1cnc2c(c1)C(=O)c1c-2n(CCCN(C)C)c(=O)c2cc([N+](=O)[O-])ccc12` .
140

Check OVCAR-3 data and give GI50 for COc1cc2c3c(n(CCCN)c(=O)c2cc1OC)-c1ncccc1C3=O.Cl [Compound 32, Hydrochloride] .
1580

More entries:
Check OVCAR-3 data and give GI50 for CN(C)CCCn1c2c(c3ccc([N+](=O)[O-])cc3c1=O)C(=O)c1cccnc1-2.Cl [Compound 20, Hydrochloride] .
2290

Check OVCAR-3 data and give GI50 for COc1cc2c3c(n(CCCNCCO)c(=O)c2cc1OC)-c1ncccc1C3=O.Cl [Compound 31, Hydrochloride] .
340
